# System: antibodies in sera from SARS patients (sera 1a, 1b, 2, 6, 37, 62, London, SARS-yellow, SARS-green)
# Type: binding, human
reported_property: Binding of serum 1b to linear peptides of protein M of SARS-CoV Urbani
No unit in the answer, only the number.

{"biopolymer_sequence": "TDSGFAAYNRYRIGN", "readout_value": 0.4}
{"biopolymer_sequence": "IMLLQFAYSNRNRFL", "readout_value": 0.5}
{"biopolymer_sequence": "RFLYIIKLVFLWLLW", "readout_value": 0.7}

Inquiry: # input sequence: RYRIGNYKLNTDHAG ; wanted: its Binding of serum 1b to linear peptides of protein M of SARS-CoV Urbani
Reply text: 0.5

Inquiry: Which Binding of serum 1b to linear peptides of protein M of SARS-CoV Urbani is listed for WIMLLQFAYSNRNRF ?
Reply text: 0.5

Inquiry: Bench note: what Binding of serum 1b to linear peptides of protein M of SARS-CoV Urbani did LEQWNLVIGFLFLAW show?
Reply text: 0.4

Inquiry: # Binding of serum 1b to linear peptides of protein M of SARS-CoV Urbani lookup, item PLRGTIVTRPLMESE
Reply text: 0.7

###

Parameter Binding of serum 2 to linear peptides of protein X2: see the listing below.
# Test system: antibodies in sera from SARS patients (sera 1a, 1b, 2, 6, 37, 62, London, SARS-yellow, SARS-green)
# Type: binding, human

Examples from the recorded data:
{"biopolymer_sequence": "TALQELLIQQWIQFM", "readout_value": 0.3}
{"biopolymer_sequence": "HSSSLTSLLKTHRMC", "readout_value": 0.3}
{"biopolymer_sequence": "HKLLQTLVLKMLHSS", "readout_value": 0.4}
{"biopolymer_sequence": "SPKFTTSLSLHKLLQ", "readout_value": 0.4}
{"biopolymer_sequence": "LQELLIQQWIQFMMS", "readout_value": 0.3}
{"biopolymer_sequence": "VILRIGTQVLKTMSL", "readout_value": 0.5}

Inquiry: Which measured Binding of serum 2 to linear peptides of protein X2 value corresponds to THRMCKYTQSTALQE ?
Reply text: 0.5

Inquiry: Value lookup for Binding of serum 2 to linear peptides of protein X2; key = MAISPKFTTSLSLHK
Reply text: 0.7

###

# Tested on: antibodies in sera from SARS patients (sera 1a, 1b, 2, 6, 37, 62, London, SARS-yellow, SARS-green)
# Type: binding, human
# Parameters: unit not given here
reported_property: Binding of serum London to looped/cyclic peptides of protein N of SARS-CoV Urbani

{"biopolymer_sequence": "GFYAEGSRGGSQASS", "readout_value": 0.3}

Inquiry: Please report the recorded Binding of serum London to looped/cyclic peptides of protein N of SARS-CoV Urbani for QLQNSMSGASADSTQ .
Reply text: 0.3

Inquiry: May I ask what Binding of serum London to looped/cyclic peptides of protein N of SARS-CoV Urbani has been recorded for PKQRRPQGLPNNTAS ?
Reply text: 0.6

###

# Test system: control sera (pooled serum of ten healthy LUMC hospital workers; commercial negative donor pooled serum from the Dutch bloodbank)
# Format: binding, human
# Design: unit not given here
reported_property: Binding of Control serum LUMC to linear peptides of the protein M of SARS-CoV Urbani

{"biopolymer_sequence": "FRLFARTRSMWSFNP", "readout_value": 0.8}
{"biopolymer_sequence": "VPLRGTIVTRPLMES", "readout_value": 0.6}
{"biopolymer_sequence": "GGIAIAMACIVGLMW", "readout_value": 0.8}
{"biopolymer_sequence": "SNRNRFLYIIKLVFL", "readout_value": 0.7}
{"biopolymer_sequence": "YKLGASQRVGTDSGF", "readout_value": 0.4}
{"biopolymer_sequence": "IVGLMWLSYFVASFR", "readout_value": 0.2}

Proceeding to the next sequence to report its Binding of Control serum LUMC to linear peptides of the protein M of SARS-CoV Urbani.
Inquiry: GET /values?readout=Binding of Control serum LUMC to linear peptides of the protein M of SARS-CoV Urbani&item= VGLMWLSYFVASFRL
Reply text: 0.5

###

# System: antibodies in sera from SARS patients (sera 1a, 1b, 2, 6, 37, 62, London, SARS-yellow, SARS-green)
# Assay type: binding, human
# Design: unit not given here
The entries below are paired with their reported Binding of serum 37 to looped/cyclic peptide (PEPSCAN-ELISA).
Reply with the value as a number alone.

{"biopolymer_sequence": "ALNKRWQLALYKGFQ", "readout_value": 0.6}

Inquiry: Please give the measured Binding of serum 37 to looped/cyclic peptide (PEPSCAN-ELISA) for this sequence: LLVAAGMEAQFLYLY
Reply text: 0.6

Inquiry: Which Binding of serum 37 to looped/cyclic peptide (PEPSCAN-ELISA) value is on record for DLFMRFFTLGSITAQ ?
Reply text: 0.5

Inquiry: Look at this sequence and give its reported Binding of serum 37 to looped/cyclic peptide (PEPSCAN-ELISA). IALNKRWQLALYKGF
Reply text: 0.5

Inquiry: Return reported Binding of serum 37 to looped/cyclic peptide (PEPSCAN-ELISA); argument: QLALYKGFQFICNLL
Reply text: 0.5

Inquiry: Field request: Binding of serum 37 to looped/cyclic peptide (PEPSCAN-ELISA) | item: LLLVAAGMEAQFLYL
Reply text: 0.7

###

# Test system: control sera (pooled serum of ten healthy LUMC hospital workers; commercial negative donor pooled serum from the Dutch bloodbank)
# Type: binding, human
# Design: unit not given here
Could you mark each record class 1 if its Binding of Control serum LUMC to linear peptides falls strictly under 0.5, and class 0 if it equals or exceeds it?

Worked cases, answers included:
{"biopolymer_sequence": "LNQLESKVSGKGQQQ", "classification": "class 0"}
{"biopolymer_sequence": "QTAAFRDVLVVLNKR", "classification": "class 0"}

Inquiry: For this sequence, is Binding of Control serum LUMC to linear peptides lower than 0.5? LVIGVAFLAVFQSAT
Reply text: class 0

Inquiry: Lab note: confirm whether the reported Binding of Control serum LUMC to linear peptides for this sequence is below 0.5, equality not counting. sequence: PTDSTDNNQNGGRNG
Reply text: class 0

Inquiry: Criterion: Binding of Control serum LUMC to linear peptides strictly below 0.5. Is it met by SRSSSRSRGNSRNST ?
Reply text: class 0

###

# System: recombinant human anti-SARS-CoV antibody 03-018
# Assay type: binding
# Set-up: unit not given here
reported_property: Binding of antibody 03-018 to looped/cyclic peptides of the N protein of SARS-CoV Urbani
The response must contain the number and no unit.

{"biopolymer_sequence": "VLQLPQGTTLPKGFY", "readout_value": 0.3}
{"biopolymer_sequence": "LDRLNQLESKVSGKG", "readout_value": 0.2}
{"biopolymer_sequence": "QTQGNFGDQDLIRQG", "readout_value": 0.2}

Next up:
Inquiry: So what does the record say about Binding of antibody 03-018 to looped/cyclic peptides of the N protein of SARS-CoV Urbani for TVTLLPAADMDDFSR ?
Reply text: 0.2

###

# System: antibodies in sera from SARS patients (sera 1a, 1b, 2, 6, 37, 62, London, SARS-yellow, SARS-green)
# Type: binding, human
// classify: if (Binding of serum 6 to looped/cyclic peptides of protein X5 of SARS-CoV Urbani < 0.4) TRUE else FALSE

Observe how each entry below is paired with its result.
{"biopolymer_sequence": "TRGNTYSTAWLCALG", "classification": "TRUE"}
{"biopolymer_sequence": "NTRGNTYSTAWLCAL", "classification": "TRUE"}
{"biopolymer_sequence": "QTAAFRDVLVVLNKR", "classification": "FALSE"}
{"biopolymer_sequence": "TCTPNVTINCQDPAG", "classification": "TRUE"}
{"biopolymer_sequence": "KILVRYNTRGNTYST", "classification": "FALSE"}

Inquiry: Dear reviewer, please state whether LPFHRWHTMVQTCTP has Binding of serum 6 to looped/cyclic peptides of protein X5 of SARS-CoV Urbani strictly beneath 0.4.
Reply text: TRUE

###

Binding of serum London to linear peptides of protein X2 overview
# System: antibodies in sera from SARS patients (sera 1a, 1b, 2, 6, 37, 62, London, SARS-yellow, SARS-green)
# Type: binding, human
Keep the answer to the number alone.

Use these answered entries as a reference point.
{"biopolymer_sequence": "IQFMMSRRRLLACLC", "readout_value": 0.5}
{"biopolymer_sequence": "SPKFTTSLSLHKLLQ", "readout_value": 0.4}
{"biopolymer_sequence": "LLKTHRMCKYTQSTA", "readout_value": 0.5}
{"biopolymer_sequence": "LKMLHSSSLTSLLKT", "readout_value": 0.5}
{"biopolymer_sequence": "AISPKFTTSLSLHKL", "readout_value": 0.5}

Inquiry: // lookup Binding of serum London to linear peptides of protein X2 for FMMSRRRLLACLCKH
Reply text: 0.7

Inquiry: Fill in: Binding of serum London to linear peptides of protein X2 of WIQFMMSRRRLLACL is ___
Reply text: 0.5

Inquiry: For LQELLIQQWIQFMMS , what is its reported Binding of serum London to linear peptides of protein X2?
Reply text: 0.4

Inquiry: // query Binding of serum London to linear peptides of protein X2 value for entry TAFQHQNSKKTTKLV
Reply text: 0.4

Inquiry: Param item = TVYHITVSQIQLSLL ; retrieve measured Binding of serum London to linear peptides of protein X2.
Reply text: 0.4
